All values here come from ChEMBL document CHEMBL1201862.

Tested on: OVCAR-8
PROTOCOL_SUMMARY: NCI tumour cell line growth inhibition, 48 h
Activity calls are given as the source filed them. Cut-off read from the data, not from the text of the source: active = GI50 up to about 1.1 µM and inactive = higher.
Mark one answer only. Choices: yes (1) = active, no (0) = inactive

COC(=O)[C@@]1(NC(=O)C(CC(=O)OC(C)(C)C)NC(=O)OC(C)(C)C)C[C@H]1C (stereo not given in full); no (0)
CCC(=O)Nc1ccc(/N=N/N(C)C)cc1; no (0)
Nc1nc(O)c2nc(CNc3ccc(C(=O)NC(CCC(=O)O)C(=O)O)cc3)cnc2n1 (stereo not given); no (0)

// outcome(item) with item = OCCCCCCOc1ccc(-c2cc(-c3ccccn3)nc(-c3ccccn3)c2)cc1 yes (1)

// outcome(item) with item = CC(=O)NNc1nc(C)c(C(=O)NNC(=O)C(=O)Nc2ccc([N+](=O)[O-])cc2C#N)s1 no (0)

// outcome(item) with item = CC(N)C(=O)OCN1C(=O)C2C3C=CC(C2C1=O)C1C2C(=O)N(COC(=O)C(C)N)C(=O)C2C31 (stereo not given) no (0)

// outcome(item) with item = FC(F)(F)c1ccccc1C1SCC2=Nc3ccccc3CN21 (stereo not given) no (0)

* * *

Test system: EKVX
PROTOCOL_SUMMARY: NCI tumour cell line growth inhibition, 48 h
Active and inactive are the calls of the source. No stated cut-off is given here; in the data, active = GI50 up to about 1.1 µM and inactive = higher. Where a SMILES comes first, the peptide text is derived from it. [ ]: non-standard residue; d: D form. The star is where a group is joined. ξ: configuration not given here. ξNMe2Val = CC(C)C(C(=O)*)N(C)C; NMeV = CN[CH](C(=O)O)C(C)C; NHBn = c1ccc(CN*)cc1
Mark one answer only. Choices: class 1 for active, class 0 for inactive

CN(C)CCCc1c[nH]c2ccccc12; class 0
CC(=O)C1=C(C)O[C@@H]2O[C@H](COCc3ccccc3)[C@@H](OCc3ccccc3)[C@H](O)[C@@H]2S1; class 0
N#Cc1ccc(Oc2nc3ccccc3nc2C(=O)O)cc1; class 0
O=C1/C(=C/C=C/c2ccccc2)CCC1CNc1ccc(Br)cc1 (stereo not given); class 0
O=S(=O)(O)c1ccc2c(/N=N/c3cccc4ccccc34)c(O)ccc2c1; class 0

// outcome(item) with item = CO/C=C(\Br)c1ccc2c(c1)OCO2 class 0

// outcome(item) with item = CC1CC2C3CCC4=CC(=O)C=CC4(C)C3(F)C(O)CC2(C)C1(O)C(=O)CO.Cc1cc(NS(=O)(=O)c2ccc(/N=N\c3cc(/N=N/c4ccc(S(=O)(=O)Nc5cc(C)nc(C)n5)cc4)c(OC(=O)C(Cl)Cl)c4cccc(NC(=O)C(Cl)Cl)c34)cc2)nc(C)n1 class 0

// outcome(item) with item = NNC(=O)C(=O)NN=C(C(Cl)(Cl)CO)C(Cl)(Cl)CO class 0

// outcome(item) with item = CC(C)C(NC(=O)C(C(C)C)N(C)C)C(=O)N(C)C(C(=O)N1CCCC1C(=O)N1CCCC1C(=O)NCc1ccccc1)C(C)C (stereo not given) (ξNMe2Val-V[NMeV]PP-NHBn; configuration not given here) class 1

// outcome(item) with item = Nc1ncnc2c1ncn2[C@H]1C=C[C@@H](NO)C1 class 0

* * *

Test system: SN12C
PROTOCOL_SUMMARY: NCI tumour cell line growth inhibition, 48 h
The source made the active and inactive calls. Rule as the data show it: active = GI50 up to about 1.1 µM and inactive = higher. Square brackets hold non-standard residues; d marks the D form. Peptide text beside a SMILES is read from it. pGlu = O=C1CC[C@@H](C(=O)O)N1; Thz = O=C(O)[C@@H]1CSCN1
Mark one answer only. Choices: active, inactive

Cc1cc(C)c(O)c(CN2CCN(C(C)C)CCN(C(C)C)CC2)c1; inactive
CC(=O)OCC1OC(n2ccc(=O)[nH]c2=O)C(OC(C)=O)C(OC(C)=O)C1OC(C)=O (stereo unspecified); inactive

// outcome(item) with item = CCOC(=O)C1=C(NC(C)(C)C)OCC1=O inactive

// outcome(item) with item = Cc1c(S(=O)(=O)O)ccc(/N=N/c2c(O)c(C(=O)O)cc3ccccc23)c1Cl inactive

// outcome(item) with item = CC(N)C(=O)OCN1C(=O)C2C3C=CC(C2C1=O)C1C2C(=O)N(COC(=O)C(C)N)C(=O)C2C31 (stereo unspecified) inactive

// outcome(item) with item = c1ccc2c(C3NCCc4nc[nH]c43)cccc2c1 (stereo unspecified) inactive

// outcome(item) with item = CCCCC/N=C/c1c(O)c(O)c(C(C)C)c2cc(C)c(-c3c(C)cc4c(C(C)C)c(O)c(O)c(/C=N/CCCCC)c4c3O)c(O)c12 inactive

// outcome(item) with item = CNC(=O)/C(C#N)=C(\N)N1CCCC1 inactive

// outcome(item) with item = COc1cc2c(c(O)c1OC)CC1CCC(=O)N1C2c1cccc2ccccc12 (stereo unspecified) inactive

// outcome(item) with item = COC(=O)[C@@]12C=CC(=O)[C@H]3C[C@@H](C(C(C)C)C1)[C@]32OC (stereo partly specified) inactive

// outcome(item) with item = CCc1nc(N)nc(N)c1-c1ccc(Cl)c(N=[N+]=[N-])c1 inactive

// outcome(item) with item = C#CC(C)(C)OCCCCOc1cc(O)c2c(=O)c3ccccc3n(C)c2c1 inactive

// outcome(item) with item = NC(=O)COC(=O)c1c(Cl)nc2sccn12 inactive

// outcome(item) with item = CCC1=C(C)/C(=C/c2[nH]c(C(Br)Br)c(CC)c2C)N=C1C(Br)Br inactive

// outcome(item) with item = CC1CC/C(=C\c2ccc(N(C)C)cc2)C2=C1C(c1ccc(N(C)C)cc1)NC(=S)N2 (stereo unspecified) inactive

// outcome(item) with item = O=C(NCCc1n[nH]c2c1C(=O)C=C(Nc1ccccc1)C2=O)OCc1ccccc1 inactive

// outcome(item) with item = CON(C)C(C#N)=C(C#N)C#N inactive

// outcome(item) with item = N#Cc1c(N)nc2[nH]nc(N)c2c1-c1ccc(Cl)cc1 inactive

// outcome(item) with item = CCC(CC)C(=O)OC[n+]1cccc(-c2c(COC(=O)NC(C)C)c(COC(=O)NC(C)C)c3n2CCC3)c1 inactive

// outcome(item) with item = O=C1CC[C@@H](C(=O)N2CSC[C@H]2C(=O)O)N1 [PIDOTIMOD] ([pGlu]-[Thz]-OH) inactive

// outcome(item) with item = COc1cc(/C=C/c2ccc(Br)cc2)cc(OC)c1OC inactive

// outcome(item) with item = COc1cc2cc(C(=O)N3CC(CCl)c4ccc(O)cc43)[nH]c2c(OC)c1OC (stereo unspecified) active
